Data provenance is PubChem BioAssay (NCI).

- measurement.protocol: NCI Yeast Anticancer Drug Screen. Data for the bub3 strain (AID 167)
- experimental.context: S. cerevisiae bub3 mutant strain, at 50.0 µM, active compounds read high
The panel holds about 79,000 compounds, 15% with a hit somewhere; the sample as a whole holds those more often.
quantity.name: growth inhibition (%)
Note: unit % is implicit; provide only the numeric part.

Solved entries:
> print(dat)
                                   compound  observed.value
1  O=S(=O)(OC12CCCCC1CN1CCCCC1C2)c1ccc(Br)cc1 (centres undefined)             3.7
2                    CC(=O)CC(C)(C)NNC(N)=S            -4.2
3           N=C(N)c1ccc(N=Nc2ccc(N)cc2N)cc1           -5.25
4  Cn1cc(N=P(c2ccccc2)(c2ccccc2)c2ccccc2)c(=O)n(C)c1=O           -2.15
5  CC(C)[Si]1(C(C)C)N([Si](C)(C)F)[Si](C(C)C)(C(C)C)N1[Si](C)(C)F           -4.45

Given the compound CC(=O)OC1CC2(C)OC(Cc3ccccc32)O1 (centres undefined) , write its reported growth inhibition. -23.1

Given the compound CCC(c1ccc(OC)cc1)c1cc2c(cc1OCC(=O)O)OCO2 (centres undefined) , write its reported growth inhibition. 44.5

====

- measurement.protocol: NCI Yeast Anticancer Drug Screen. Data for the sgs1 mgt1 strain (AID 161);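 note: 0% = growth of cultures given vehicle only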
- experimental.context: S. cerevisiae sgs1 mgt1 strain, at 50.0 µM, active compounds read high
- Method: Growth inhibition of yeast strains with defined genetic alterations is measured as a screen for potential anti-cancer activity. Selected strains with alterations in DNA damage repair or cell cycle control were exposed to compounds and growth inhibition was measured relative to vehicle treated controls. The strain used in this assay is sgs1 mgt1
About 79,000 compounds went through this panel and 15% of them were active in at least one assay; those are over-represented in the sample as a whole.
Each record here notes measured growth inhibition.
Note: unit % is implicit; provide only the numeric part.

> print(dat)
                                   molecule      quantity.name  observed.value
1  C=CCNC(=S)/N=C/C(C(=O)Nc1ccccc1OC)=C(\C)O  growth inhibition           -27.3
2  O=C(O)C1CCCCC1C(=O)NCc1ccco1 (configuration not stated)  growth inhibition            4.05
3  Cn1c(=O)c(C(=O)NC23CC4CC(CC(C4)C2)C3)c(O)c2ccccc21  growth inhibition           -46.5

Given the molecule CCCCOC(=O)c1ccccc1 , write its reported growth inhibition. -10.2

Given the molecule C1COC2OCCOC2O1 (configuration not stated) , write its reported growth inhibition. 4.6

Given the molecule N#CNc1ccccc1 , write its reported growth inhibition. -12.2

Given the molecule O=C(CC(=O)c1ccc(Cl)cc1)c1ccc(Cl)cc1 , write its reported growth inhibition. -3.95

====

- measurement.protocol: NCI Yeast Anticancer Drug Screen. Data for the cln2 rad14 strain (AID 165);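 note: 0% = growth equal to vehicle treated cultures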
- experimental.context: S. cerevisiae cln2 rad14 strain, at 50.0 µM, active compounds read high
The panel holds about 79,000 compounds, 15% with a hit somewhere; the sample as a whole holds those more often.
Each record here notes measured growth inhibition.
Note: unit % is implicit; provide only the numeric part.

Solved entries:
> print(dat)
                                   compound      quantity.name  observed.value
1      c1ccc(-c2nc(-c3ccccn3)cc3ccccc23)cc1  growth inhibition             2.8
2                         Cc1nc(C)c(CC#N)s1  growth inhibition           -15.1
3  S=C1N=C2c3ccccc3C2C(=S)S1 (configuration not stated)  growth inhibition           -24.9

Here is the next item to consider.
Given the compound CN(C)CCC1(C2=CCCC2)CC/C(=C\c2ccc3c(c2)OCO3)C1=O (configuration not stated) , write its reported growth inhibition. 16.4
